The reader will find reported T/C values listed item by item below.
System: P388 leukemia ip, CD2F1 mice, survival T/C
Assay Info: NCI In Vivo Anticancer Drug Screen. Data for tumor model P388 Leukemia (intraperitoneal) in CD2F1 (CDF1) mice
Condition Context: endpoint: median survival time; dose: 200.0 mg/kg/injection; schedule: Q01DX005 (ip); vehicle: distilled water + alcohol; higher = longer survival
Toxic doses and inconclusive results are not listed.

Illustrative cases are given below, each with its answer.
C=CCc1cc2c(cc1Cc1ccc(OC)cc1)OCO2; 109 % of control
CN(C)c1ncnc2c1ncn2CC(O)CN (stereo not given); 96 % of control
CCCCOc1cc2c(cc1C(C)c1ccc(OC)cc1)OCO2 (stereo not given); 96 % of control
O=S1(=O)NC2CCC3NS(=O)(=O)NC4CCC(N1)N4S(=O)(=O)N23 (stereo not given); 105 % of control

Field request: T/C | item: Nc1ncnc2c1ccn2CC(O)CO (stereo not given)
101 % of control

Value source: PubChem BioAssay AID330
